tested-system: K-Ras G12C (Homo sapiens (Human), UniProt P01116+P62937, G12C)
Sequence (P01116-2 other isoform, or with tags, fused parts or gaps G12C): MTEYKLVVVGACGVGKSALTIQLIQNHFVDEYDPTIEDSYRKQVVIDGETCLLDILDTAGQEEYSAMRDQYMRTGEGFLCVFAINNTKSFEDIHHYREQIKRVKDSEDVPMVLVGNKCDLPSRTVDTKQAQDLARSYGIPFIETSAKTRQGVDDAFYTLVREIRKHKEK
Sequence (P62937 whole entry): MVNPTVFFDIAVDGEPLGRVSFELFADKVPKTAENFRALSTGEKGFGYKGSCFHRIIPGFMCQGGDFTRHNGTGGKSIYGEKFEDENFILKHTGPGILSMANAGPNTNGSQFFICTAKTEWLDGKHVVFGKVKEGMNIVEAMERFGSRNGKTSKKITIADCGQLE
assay: Ras-Raf (BRAF RBD) disruption / FRET / MOA assay, KRAS G12C
Type: biochemical
test-parameters: KRAS G12C; Ras-Raf disruption/FRET/MOA assay; read-out: IC50* KRAS G12C FRET data
outcome-measure: IC50

* C=CC(=O)N1CC[C@@]2(CCN(C(=O)N(C)[C@H](C(=O)N[C@H]3Cc4nc(cs4)-c4ccc5c(c4)c(c(-c4cccnc4[C@H](C)OC)n5CC)CC(C)(C)COC(=O)[C@@H]4CCCN(N4)C3=O)C(C)C)C2)C1 (atropisomer, axis not shown) | 10 to 100 nM
* C=CC(=O)N1CC[C@H](C(=O)N(C)[C@H](C(=O)N[C@@H]2C(=O)N3CCC[C@H](N3)C(=O)OCC(C)(C)Cc3c(-c4cncnc4)n(CC)c4ccc(cc34)-c3cccc(c3)[C@H]2O)C(C)C)C1 | 1000 to 10000 nM
